assayed system: Adrenergic receptor alpha-1 (Rattus norvegicus, UniProt P15823+P23944+P43140)
assay summary: Displacement of [3H]prazosin from alpha1 adrenergic receptor in Sprague-Dawley rat brain membrane after 45 mins by liquid scintillation counting
Type: cell membranes
assay readout: Ki (nM)

[[record]]
smiles_str = "Cc1ccc2c(N=C3NCCN3)n[nH]c2c1.Cl"
value = 508

[[record]]
smiles_str = "Cc1ccc2[nH]nc(N=C3NCCN3)c2c1.Cl"
value = 29000

[[record]]
smiles_str = "Cl.Clc1ccc2[nH]nc(N=C3NCCN3)c2c1"
value = 121

